Target: α2 GlyR (Rattus norvegicus, UniProt P22771, A288G)
Construct: homomeric α2, expressed in HEK 293 cells; T59, A261, A303 (T59 fits splice form alpha-2A)
Sequence (P22771 28-452 A288G): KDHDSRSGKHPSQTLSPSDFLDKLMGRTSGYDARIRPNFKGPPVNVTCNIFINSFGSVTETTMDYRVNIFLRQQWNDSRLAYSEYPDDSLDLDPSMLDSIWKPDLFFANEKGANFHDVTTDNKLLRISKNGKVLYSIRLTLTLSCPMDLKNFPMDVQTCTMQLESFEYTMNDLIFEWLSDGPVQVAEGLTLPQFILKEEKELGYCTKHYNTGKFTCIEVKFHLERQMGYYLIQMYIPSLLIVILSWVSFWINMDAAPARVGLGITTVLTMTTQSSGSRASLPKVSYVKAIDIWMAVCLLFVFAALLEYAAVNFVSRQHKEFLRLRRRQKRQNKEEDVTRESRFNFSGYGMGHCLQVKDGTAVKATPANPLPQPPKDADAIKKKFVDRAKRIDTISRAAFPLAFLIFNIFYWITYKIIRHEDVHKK
Assay: whole-cell voltage clamp, concentration-response
measured_metric: EC50 (µM)
Numbers only, in µM.

Please report the recorded EC50 for NCC(=O)O [glycine] .
217

====

tested on: α2α1; construct: gene Glra2; one fused subunit: α2 upstream of the TM3-4 loop (ECD to TM3), then α1 intracellular loop plus TM4; HEK 293; test: whole-cell voltage clamp, concentration-response; type: cell-based, Rattus norvegicus; conditions: agonist; pH 7.4, 20-24 °C, -60 mV
measured_metric: pEC50
Numbers only, as −log10 of the molar value.

Please report the recorded pEC50 for NCC(=O)O .
3.95

====

Biological target: α2 GlyR (Rattus norvegicus, UniProt P22771, T86A)
Construct: homomeric α2, expressed in HEK 293 cells; T59, A261, A303 (T59 fits splice form alpha-2A)
Assay: whole-cell voltage clamp, concentration-response
Excerpt: whole-cell voltage clamp, concentration-response on α2 GlyR
measured_metric: pEC50
Give bare numbers, as −log10 of the molar value.

Please report the recorded pEC50 for NCC(=O)O [glycine] .
4.20

====

Molecular target: α2 GlyR (Rattus norvegicus, UniProt P22771, A288G/T86A)
Construct: homomeric α2, expressed in HEK 293 cells; T59, A261, A303 (T59 fits splice form alpha-2A)
Sequence (P22771 28-452 T86A/A288G): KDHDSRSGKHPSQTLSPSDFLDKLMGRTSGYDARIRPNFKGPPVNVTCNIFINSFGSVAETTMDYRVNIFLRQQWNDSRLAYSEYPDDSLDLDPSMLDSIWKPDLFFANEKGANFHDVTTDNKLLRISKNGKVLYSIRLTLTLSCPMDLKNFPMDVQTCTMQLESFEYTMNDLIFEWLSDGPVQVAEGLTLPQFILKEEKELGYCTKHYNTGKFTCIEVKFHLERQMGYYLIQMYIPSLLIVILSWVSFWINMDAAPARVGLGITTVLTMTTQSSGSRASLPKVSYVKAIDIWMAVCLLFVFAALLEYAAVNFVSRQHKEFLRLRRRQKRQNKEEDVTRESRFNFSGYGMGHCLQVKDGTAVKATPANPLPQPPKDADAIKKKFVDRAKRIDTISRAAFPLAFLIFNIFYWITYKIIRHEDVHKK
Test: whole-cell voltage clamp, concentration-response
measured_metric: pEC50
Numbers only, as −log10 of the molar value.

Please report the recorded pEC50 for NCC(=O)O [glycine] .
4.12
